Tested on: EfPiwi piRISC loaded with piRNA #1 (26 nt)
Experiment: pre-steady-state target cleavage rate (min^-1); auxiliary factor: 500 nM Ephydatia muelleri Gtsf1; guide: piRNA #1 5'p-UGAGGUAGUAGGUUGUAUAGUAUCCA; MIWI and MILI are mouse PIWI proteins and EfPiwi is from a freshwater sponge; tags in brackets are library labels; higher = faster piRNA-guided slicing of the target
// values below are reported pre-steady-state target cleavage rate

Some solved cases for reference:
GGAGACCUUACUAUACAACGUACUUCCUCA ... 0.00315
GGAGAGGAUACUAUCACAACCUACUACCUCA ... 0.0777
GGAGAGGAUACUAAACAACCUUCUACCUCA ... 0.00394
GGAGAGGAUACUAUUCAACCAACUACCUCA ... 0.00354
GGAGAGGAUACUAUACAUCCUACAACCUCA ... 0.00339

Now examine the next entry.
Lookup: Using the record for `GGAGACCUAUGAAUCACAACCUACUACCUCA` , report its pre-steady-state target cleavage rate.
Found: 0.00389
